experimentalTarget: Aβ1-40 (Homo sapiens, UniProt P05067)
Construct: (β-AP1-40) was obtained commercially from Bachem (Torrance, Calif.); purchased Bachem (Torrance, Calif.)
Sequence (P05067 672-711): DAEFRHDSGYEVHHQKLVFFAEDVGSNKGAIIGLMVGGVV
testProtocol: Nucleation assay (turbidity, A405 nm)
Assay type: biochemical
runConditions: Table III; 33 mole %
Peptide text beside a SMILES is read from it. * marks the point of attachment. Cholyl = C[C@H](CCC(=O)*)[C@H]1CC[C@H]2[C@@H]3[C@H](O)C[C@@H]4C[C@H](O)CC[C@]4(C)[C@H]3C[C@H](O)[C@]12C
quantityMeasured: Fold Increase in Lag Time (fold)

INSERT INTO measurements (molecule, quantitymeasured, numericvalue) VALUES
  ('C[C@H](CCC(=O)N[C@@H](Cc1c[nH]cn1)C(=O)N[C@@H](CC(=O)O)C(=O)N[C@@H](CO)C(=O)NCC(=O)N[C@@H](Cc1ccc(O)cc1)C(N)=O)[C@H]1CC[C@H]2[C@@H]3[C@H](O)C[C@@H]4C[C@H](O)CC[C@]4(C)[C@H]3C[C@H](O)[C@]12C [PPI-339] (Cholyl-HDSGY-NH2)', 'Fold Increase in Lag Time', 1.1),
  ('CC(C)C[C@H](NC(=O)[C@H](CCCCN)NC(=O)[C@H](CCC(N)=O)NC(=O)[C@H](Cc1c[nH]cn1)NC(=O)CC[C@@H](C)[C@H]1CC[C@H]2[C@@H]3[C@H](O)C[C@@H]4C[C@H](O)CC[C@]4(C)[C@H]3C[C@H](O)[C@]12C)C(=O)N[C@H](C(=O)N[C@@H](Cc1ccccc1)C(=O)N[C@@H](Cc1ccccc1)C(=O)O)C(C)C [PPI-348, cholyl-Aβ14-20] (Cholyl-HQKLVFF-OH)', 'Fold Increase in Lag Time', 2.0),
  ('CC(C)C[C@H](NC(=O)[C@H](CCCCN)NC(=O)[C@H](CCC(N)=O)NC(=O)[C@H](Cc1c[nH]cn1)NC(=O)[C@H](Cc1c[nH]cn1)NC(=O)CC[C@@H](C)[C@H]1CC[C@H]2[C@@H]3[C@H](O)C[C@@H]4C[C@H](O)CC[C@]4(C)[C@H]3C[C@H](O)[C@]12C)C(=O)N[C@H](C(=O)N[C@@H](Cc1ccccc1)C(=O)N[C@@H](Cc1ccccc1)C(=O)O)C(C)C [PPI-347, cholyl-Aβ13-20] (Cholyl-HHQKLVFF-OH)', 'Fold Increase in Lag Time', 2.6),
  ('CC(C)C[C@H](NC(=O)[C@H](CCCCN)NC(=O)[C@H](CCC(N)=O)NC(=O)CC[C@@H](C)[C@H]1CC[C@H]2[C@@H]3[C@H](O)C[C@@H]4C[C@H](O)CC[C@]4(C)[C@H]3C[C@H](O)[C@]12C)C(=O)N[C@H](C(=O)N[C@@H](Cc1ccccc1)C(=O)N[C@@H](Cc1ccccc1)C(=O)O)C(C)C [PPI-349, cholyl-Aβ15-20]', 'Fold Increase in Lag Time', 2.3);

====

Reported ΔLag (ratio of lag time with test compound to lag time of control) is given for each of the following compounds.
experimentalTarget: Aβ1-40 (Homo sapiens, UniProt P05067)
Construct: (β-AP1-40) was obtained commercially from Bachem (Torrance, Calif.); purchased Bachem (Torrance, Calif.)
testProtocol: Nucleation assay (turbidity, A405 nm);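 further: synthetic Aβ monomer polymerization followed by turbidity in 96-well plates with continuous shaking, read every 15 minutes over 5 hours, compared against wells lacking test compound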
Assay type: biochemical
runConditions: Table V; 100 mole % inhibitor relative to Aβ1-40
Peptide text beside a SMILES is read from it. * marks the point of attachment. Cholyl = C[C@H](CCC(=O)*)[C@H]1CC[C@H]2[C@@H]3[C@H](O)C[C@@H]4C[C@H](O)CC[C@]4(C)[C@H]3C[C@H](O)[C@]12C
quantityMeasured: ΔLag (ratio of lag time with test compound to lag time of control)

INSERT INTO assay_data (compound, numericvalue) VALUES
  ('CC(C)C[C@H](NC(=O)[C@H](CCCCN)NC(=O)CCCC[C@@H]1SC[C@@H]2NC(=N)N[C@@H]21)C(=O)N[C@H](C(=O)N[C@@H](Cc1ccccc1)C(=O)N[C@@H](Cc1ccccc1)C(=O)O)C(C)C', 1.3),
  ('CC(C)C[C@H](NC(=O)[C@H](CCCCN)NC(=O)[C@H](CCC(N)=O)NC(=O)CC[C@@H](C)[C@H]1CC[C@H]2[C@@H]3[C@H](O)C[C@@H]4C[C@H](O)CC[C@]4(C)[C@H]3C[C@H](O)[C@]12C)C(=O)N[C@H](C(=O)N[C@@H](Cc1ccccc1)C(=O)O)C(C)C [PPI-366] (Cholyl-QKLVF-OH)', 3.1),
  ('CC(C)C[C@H](NC(=O)[C@H](CCCCN)NC(=O)CC[C@@H](C)[C@H]1CC[C@H]2[C@@H]3[C@H](O)C[C@@H]4C[C@H](O)CC[C@]4(C)[C@H]3C[C@H](O)[C@]12C)C(=O)N[C@H](C(=O)N[C@@H](Cc1ccccc1)C(=O)N[C@@H](Cc1ccccc1)C(N)=O)C(C)C [PPI-319, cholyl-Aβ16-20-amide]', 5.4);
